Test: solvent given as SMILES
Conditions: in CCCO
Measured absorption maximum of individual entries
Return type: number; implicit unit nm.

# structureSmiles, absorption maximum [nm]
measured = [
    ("CN1C(C(=O)Nc2ccccn2)=C(O)c2sccc2S1(=O)=O", 350),
    ("CCCCCCCCCCCCCCCCN(CCCCCCCCCCCCCCCC)c1ccc(/C=C/c2cc[n+](Cc3cc(C[n+]4ccc(/C=C/c5ccc(N(CCCCCCCCCCCCCCCC)CCCCCCCCCCCCCCCC)cc5)cc4)cc(C[n+]4ccc(/C=C/c5ccc(N(CCCCCCCCCCCCCCCC)CCCCCCCCCCCCCCCC)cc5)cc4)c3)cc2)cc1", 508),
    ("COc1ccc2cc(-c3ccc(C(F)(F)F)cc3)oc(=O)c2c1", 325),
]

Now for another entry.
So what does the record say about absorption maximum for `O=c1[nH]c2ccccc2[nH]1` ?
280
